src = paper PMC12748989

Field: Average (percentage cell inhibition), Dmastoparan MDA-MB231 12.5uM. Provide a value for each of the compounds that follow.
# output: bare number, implied unit %

Task: Give Average (percentage cell inhibition), Dmastoparan MDA-MB231 12.5uM only, for "CC[C@H](C)[C@H](N)C(=O)N[C@@H](CO)C(=O)N[C@@H](CC(C)C)C(=O)N[C@@H](CCCCN)C(=O)N[C@@H](C)C(=O)N[C@@H](CC(C)C)C(=O)N[C@@H](C)C(=O)N[C@@H](C)C(=O)N[C@@H](CC(C)C)C(=O)N[C@@H](C)C(=O)N[C@@H](CCCCN)C(=O)N[C@@H](CCCCN)C(=O)N[C@H](C(=O)N[C@@H](CC(C)C)C(N)=O)[C@@H](C)CC" , using MDA-MB-231 cells data.
Result: 39.9159

Task: Specify Average (percentage cell inhibition), Dmastoparan MDA-MB231 12.5uM for "CC[C@H](C)[C@H](N)C(=O)N[C@@H](CC(N)=O)C(=O)N[C@@H](CC(C)C)C(=O)N[C@@H](CCCCN)C(=O)N[C@@H](C)C(=O)N[C@@H](CC(C)C)C(=O)N[C@@H](C)C(=O)N[C@@H](C)C(=O)N[C@@H](CC(C)C)C(=O)N[C@@H](C)C(=O)N[C@@H](CCCCN)C(=O)N[C@@H](CCCCN)C(=O)N1CCC[C@H]1C(=O)N[C@@H](CC(C)C)C(N)=O" , system MDA-MB-231 cells.
Result: -16.5854

Task: Under MDA-MB-231 cells, report Average (percentage cell inhibition), Dmastoparan MDA-MB231 12.5uM for "CC[C@H](C)[C@H](N)C(=O)N[C@@H](C)C(=O)N[C@@H](CC(C)C)C(=O)N[C@@H](CCCCN)C(=O)N[C@@H](C)C(=O)N[C@@H](CC(C)C)C(=O)N[C@@H](C)C(=O)N[C@@H](C)C(=O)N[C@@H](CC(C)C)C(=O)N[C@@H](C)C(=O)N[C@@H](CCCCN)C(=O)N[C@@H](CCCCN)C(=O)N[C@H](C(=O)N[C@@H](CC(C)C)C(N)=O)[C@@H](C)CC"
Result: 38.1038

----------
System: PBMC
Experimental Context: 12.5 µM
Provide the recorded Average (percentage cell inhibition), Mastoparan PBMC for the entries that follow.
Give a bare numeral; the unit % is implied.

Task: Look up Average (percentage cell inhibition), Mastoparan PBMC of "CC[C@H](C)[C@H](N)C(=O)N[C@@H](CC(N)=O)C(=O)N[C@@H](CC(C)C)C(=O)N[C@@H](CCCCN)C(=O)N[C@@H](C)C(=O)N[C@@H](CC(C)C)C(=O)N[C@@H](C)C(=O)N[C@@H](C)C(=O)N[C@@H](CC(C)C)C(=O)N[C@@H](C)C(=O)N[C@@H](Cc1c[nH]cn1)C(=O)N[C@@H](CCCCN)C(=O)N[C@H](C(=O)N[C@@H](CC(C)C)C(N)=O)[C@@H](C)CC" and report it.
Result: -0.6179

Task: Respond only with Average (percentage cell inhibition), Mastoparan PBMC recorded for "CC[C@H](C)[C@H](N)C(=O)N[C@@H](CC(N)=O)C(=O)N[C@@H](CC(C)C)C(=O)N[C@@H](CCCCN)C(=O)N[C@@H](C)C(=O)N[C@@H](CC(C)C)C(=O)N[C@@H](C)C(=O)N[C@@H](C)C(=O)N[C@@H](CC(C)C)C(=O)N[C@@H](C)C(=O)N[C@@H](CCCCN)C(=O)N[C@@H](CCCCN)C(=O)N[C@H](C(=O)N[C@@H](CC(C)C)C(N)=O)[C@@H](C)O"
Result: 3.307

Task: Please indicate Average (percentage cell inhibition), Mastoparan PBMC recorded for "CC[C@H](C)[C@H](N)C(=O)N[C@@H](CC(N)=O)C(=O)N[C@@H](CC(C)C)C(=O)N[C@@H](CCCCN)C(=O)N[C@@H](C)C(=O)N[C@H](C(=O)N[C@@H](C)C(=O)N[C@@H](C)C(=O)N[C@@H](CC(C)C)C(=O)N[C@@H](C)C(=O)N[C@@H](CCCCN)C(=O)N[C@@H](CCCCN)C(=O)N[C@H](C(=O)N[C@@H](CC(C)C)C(N)=O)[C@@H](C)CC)[C@@H](C)O"
Result: 0.8912

Task: State, in one line, measured Average (percentage cell inhibition), Mastoparan PBMC of "CC[C@H](C)[C@H](N)C(=O)N[C@@H](CC(N)=O)C(=O)N[C@@H](CC(C)C)C(=O)N[C@@H](CCCCN)C(=O)N[C@@H](C)C(=O)N[C@@H](CC(C)C)C(=O)N[C@@H](C)C(=O)N[C@@H](C)C(=O)N[C@@H](CC(C)C)C(=O)N[C@@H](C)C(=O)N[C@@H](Cc1ccc(O)cc1)C(=O)N[C@@H](CCCCN)C(=O)N[C@H](C(=O)N[C@@H](CC(C)C)C(N)=O)[C@@H](C)CC"
Result: 16.0926

Task: Given the compound "CC[C@H](C)[C@H](N)C(=O)N[C@@H](CC(N)=O)C(=O)N[C@@H](CC(C)C)C(=O)N[C@@H](CCCCN)C(=O)N[C@@H](C)C(=O)N[C@@H](CC(C)C)C(=O)N[C@@H](C)C(=O)N[C@@H](C)C(=O)N[C@@H](CC(C)C)C(=O)N[C@@H](C)C(=O)N[C@@H](CCCCN)C(=O)N[C@@H](CCCCN)C(=O)N[C@H](C(=O)N[C@@H](CCC(=O)O)C(N)=O)[C@@H](C)CC" , write its reported Average (percentage cell inhibition), Mastoparan PBMC.
Result: 2.998

Task: Return reported Average (percentage cell inhibition), Mastoparan PBMC. Input compound: "CC[C@H](C)[C@H](N)C(=O)N[C@@H](CC(N)=O)C(=O)N[C@H](C(=O)N[C@@H](CCCCN)C(=O)N[C@@H](C)C(=O)N[C@@H](CC(C)C)C(=O)N[C@@H](C)C(=O)N[C@@H](C)C(=O)N[C@@H](CC(C)C)C(=O)N[C@@H](C)C(=O)N[C@@H](CCCCN)C(=O)N[C@@H](CCCCN)C(=O)N[C@H](C(=O)N[C@@H](CC(C)C)C(N)=O)[C@@H](C)CC)C(C)C"
Result: -4.825
